experiment: soluble fraction after stress (log2 fold change); higher = more stays soluble; pooled small domains, quantitative proteomics; conditions: stress: 75 degC;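 further: 20 min heating vs room temperature control held 20 min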
# if value of soluble fraction (log2) reaches -0.1, tag class 1; if it stays below, tag class 0

Task: I'd appreciate it if you could say whether HMGTTTPPATRKGKVTSSFLNVRSGPSTANAKVAELKQNAVVTIYETSSNGWHRIGVNQWVIGTNIQE has soluble fraction (log2) at least equal to -0.1.
Result: class 0

Task: I'd appreciate it if you could say whether HMVKETNYSFFLKQIDAGTVEQVQIEDTEIKFKVSTADGKEQVYSTVRVEDPDLVDRLYSKGNIDFTGN has soluble fraction (log2) at least equal to -0.1.
Result: class 1

Task: I'd appreciate it if you could say whether HMFDLATVKRVAEEAGMKFTIHPVELRAAHPNTAVLTLKSKAGRILVLKAASVGGGRIRVTEIDGVPAD has soluble fraction (log2) at least equal to -0.1.
Result: class 0

Task: I'd appreciate it if you could say whether HMDQDLGFLINKYFELGKDYNTLVEIYEKIKEYIASIDKKMLEYTKNFTIEQLKKWLDDGTINNIILTLG has soluble fraction (log2) at least equal to -0.1.
Result: class 0

Task: I'd appreciate it if you could say whether HMKIRKAVIPAAGLGTRVLPASKSIPKEMLPIVDKPVIQYIVEEAVKAGITEILIITGRGKGAIEDHFDRS has soluble fraction (log2) at least equal to -0.1.
Result: class 0

Task: I'd appreciate it if you could say whether HMGMLATFVTSAKVPDDVVYAITKEVFENLDEFKKLHPALEGLTRETMLEGLTAPIHPGALKYYKEAGLM has soluble fraction (log2) at least equal to -0.1.
Result: class 0

Task: I'd appreciate it if you could say whether HMEPQLVKSFDVQTELTYDQFLSKYPESHTLGRLLVQPEPIPFEPYKNIPGITPEKLLALHAKHLEAR has soluble fraction (log2) at least equal to -0.1.
Result: class 1

Task: I'd appreciate it if you could say whether HMFEEPYLATYPVLIDPKLAFNVLDTMLEGLEVKMDQDEETGAISVLAPASIHTKITEYLDALSKQ has soluble fraction (log2) at least equal to -0.1.
Result: class 1

Task: I'd appreciate it if you could say whether HMQLDLSDPSKNKLDSIVSLPIKSLKAVEANGEILFMSENGRFVLRGQLYDIWYKDTLDTSAQIQDAATRI has soluble fraction (log2) at least equal to -0.1.
Result: class 1

Task: I'd appreciate it if you could say whether HMSRMLTVKQREVFDLAMREGYWETPRRITLTMLASLLSVSKSTLSVQLHKIEGTVLSSFSDEVRRRS has soluble fraction (log2) at least equal to -0.1.
Result: class 0

Task: I'd appreciate it if you could say whether HMGDLVKGKVVGYDPDNVIVDIGAKTNALVPNREAVVEAGDDIKETLKKGNEYEFLIIRDEDEEGEFL has soluble fraction (log2) at least equal to -0.1.
Result: class 1

Task: I'd appreciate it if you could say whether HMGESYGPVRRGETLWSIAEKVKPAGVSTQKELAAIYAANPQAFIRGDINLLKAGAELRLPSPEAL has soluble fraction (log2) at least equal to -0.1.
Result: class 1

Task: I'd appreciate it if you could say whether HMTFEPVYDENSRILILGTFPSVKSREQQFYYGHPQNRFWKLLAALTGWKVPKTISEKKELLLQNGIA has soluble fraction (log2) at least equal to -0.1.
Result: class 0

Task: I'd appreciate it if you could say whether HMYTVQQLARLAGITPRTLRHYDAIGLLKPTRVGENGYRYYGSEALLRLQSILLYRELDMPLEDIRRVLDS has soluble fraction (log2) at least equal to -0.1.
Result: class 0

Task: I'd appreciate it if you could say whether HMGKGVDKIMKMADDYSYGKIAGKTVDVMTAKLFQAAYNKAPQKAKDKVDKMNEKQLYIFMMNLWKRF has soluble fraction (log2) at least equal to -0.1.
Result: class 0

Task: I'd appreciate it if you could say whether HMLLFSVADIVKRSKRILSFKTDAELAAYFGVSRSTLSNWIARNSIDFPLLLSKMKDVDYTWLILGKGTPG has soluble fraction (log2) at least equal to -0.1.
Result: class 0
